biological target: Protein farnesyltransferase (Homo sapiens, UniProt P49354+P49356); test: Inhibition of Farnesyltransferase; assay type: protein-complex assay
reported-property: pIC50
Entry type: numeric. Quantity: pIC50, the -log10 of concentration in molar units.

Ask: What measured pIC50 goes with CCOc1cccc(-c2cc(C#N)ccc2COC(c2ccc(C#N)cc2)c2cncn2C)c1 (stereo unspecified) ?
Result: 9.16

====

target: Protein farnesyltransferase (Homo sapiens, UniProt P49354+P49356); assay: Effective concentration required for inhibition of farnesylation of Ras protein in NIH3T3 cells
reported-property: EC50

Ask: For Protein farnesyltransferase (Homo sapiens, UniProt P49354+P49356), provide EC50 of COc1cccc(-c2cc(C=O)ccc2COC(c2ccc(C#N)cc2)c2cncn2C)c1 (stereo not drawn) please.
Result: > 100 nM

Ask: For Protein farnesyltransferase (Homo sapiens, UniProt P49354+P49356), provide EC50 of Cn1cncc1C(OCc1ccc(C#N)cc1-c1cccc(Cl)c1)c1ccc(C(F)(F)F)cc1 (stereo not drawn) please.
Result: > 100 nM

Ask: For Protein farnesyltransferase (Homo sapiens, UniProt P49354+P49356), provide EC50 of Cn1cncc1C(OCc1ccc(Cl)cc1-c1ccccc1Cl)c1ccc(C#N)cc1 (stereo not drawn) please.
Result: > 1000 nM
